- SUBJECT_OF_TEST: T1, human OT7T175 (metastin receptor) (human, UniProt Q969F8 1-398)
- T1 construct: expressed on CHO cells; also called hOT7T175; hOT7T175-expressed CHO cells
- ASSAY_PROTOCOL: competition with Cy-5 metastin (40-54) on hOT7T175-CHO cells, FMAT
pIC50: −log10 of the molar value. Non-standard residues stand in square brackets, D forms with d. No end group written: not given here. Phe(2-Cl) = N[C@@H](Cc1ccccc1Cl)C(=O)O; Arg(Me) = CNC(=N)NCCC[C@H](N)C(=O)O; azaGly = NNC(=O)O
MEASUREMENT_LABEL: pIC50

[
  {
    "BINDER": "[dY]N[Phe(2-Cl)]NSF[azaGly]L[Arg(Me)]F-NH2 (N-terminus assumed; SMILES CNC(=N)NCCC[C@H](NC(=O)[C@H](CC(C)C)NC(=O)NNC(=O)[C@H](Cc1ccccc1)NC(=O)[C@H](CO)NC(=O)[C@H](CC(N)=O)NC(=O)[C@H](Cc1ccccc1Cl)NC(=O)[C@H](CC(N)=O)NC(=O)[C@H](N)Cc1ccc(O)cc1)C(=O)N[C@@H](Cc1ccccc1)C(N)=O, also called Compound No. 247) [[D-Tyr1,Phe(2Cl)3,AzaGly7,Arg(Me)9]MS10]",
    "RECORDED_VALUE": 7.35
  }
]

The measured values listed here are drawn from patent US20090298765A1.
